In this section, each of the compounds is paired with its reported melting point.
Write the number in °C without appending the unit.

A selection of reference data follows.
* Cc1ncc(C#N)cc1Nc1nccc(-c2cc(C#N)c3c(c2)[C@@](C)(CO)CN3)n1 | 247
* Cc1cnc(OCC2COCCN2C)c(Nc2nccc(-c3cc(C#N)c4c(c3)[C@@](C)(CO)CN4)n2)c1 (single isomer, unassigned) [Compound 149] | 146
* COc1ncccc1Nc1nccc(-c2cc(C#N)c3c(c2)C(C)(COCCN2CCCC2)CN3)n1 (stereo not shown) | 88

Kindly review the next compound as well.
State the recorded melting point for this entry: COCCOc1nc(C2CC2)ccc1Nc1nccc(-c2cc(C#N)c3c(c2)[C@@](C)(CO)CN3)n1
117

* * *

Property: melting point (°C)
# unit: °C | format: bare number

Known melting point results, listed for orientation:
• COc1nc(C)c(Nc2nccc(-c3cc(C#N)c4c(c3)[C@@](C)(CO)CN4)n2)cc1C = 260
• Cc1cc(Nc2nccc(-c3cc(C#N)c4c(c3)[C@@](C)(CO)CN4)n2)c(OC(C)C)nc1CCN1CC(F)C1 = 173
• COc1ncccc1Nc1nccc(-c2cc(C#N)c3c(c2)[C@](C)(CO)CN3)n1 = 245
• Cc1cnc(OC2CN(C)CC2F)c(Nc2nccc(-c3cc(C#N)c4c(c3)[C@@](C)(CO)CN4)n2)c1 (stereo partly shown) [Compound 153] = 180
• Cc1cnc(OCC2CC2)c(Nc2nccc(-c3cc(C#N)c4c(c3)[C@@](C)(CO)CN4)n2)c1 = 206

Next, consider the following molecule.
Give its melting point value. Item: Cc1cnc(CCN2CC(F)C2)c(Nc2nccc(-c3cc(C#N)c4c(c3)[C@@](C)(CO)CN4)n2)c1
171

* * *

Quick reference for melting point among some molecules
Answer format: numeric, °C implied, no suffix.

Sample answers from the record:
• CNCC1(C)CNc2c(C#N)cc(-c3ccnc(Nc4cccnc4OC)n3)cc21 (centres unmarked) = 173
• Cc1ncc(C(=O)N2CCN(C)CC2)cc1Nc1nccc(-c2cc(C#N)c3c(c2)[C@@](C)(CO)CN3)n1 = 150
• COCCOc1ncc(F)cc1Nc1nccc(-c2cc(C#N)c3c(c2)[C@@](C)(CO)CN3)n1 = 186

What value of melting point has been reported for the following molecule? Cc1cc(Nc2nccc(-c3cc(C#N)c4c(c3)[C@@](C)(CO)CN4)n2)c(=O)n(CCN2CCN(C)CC2)c1 [Compound 19i]
148

Also, CC1(CO)CNc2c(C#N)cc(-c3ccnc(Nc4cccnc4C(F)(F)F)n3)cc21 (centres unmarked) please.
202

Now consider CCOc1ncccc1Nc1nccc(-c2cc(C#N)c3c(c2)C(C)(CO)CN3)n1 (centres unmarked) and answer again.
248

Would you mind doing Cc1cnc(OC2CN(C)CC2F)c(Nc2nccc(-c3cc(C#N)c4c(c3)[C@@](C)(CO)CN4)n2)c1 (some centres unmarked) [Compound 154] as well?
185

* * *

Molecular target: recombinant human NF-kappaB-inducing Kinase (NIK/MAP3K14) (Homo sapiens, UniProt Q99558)
Sequence (Q99558 whole entry): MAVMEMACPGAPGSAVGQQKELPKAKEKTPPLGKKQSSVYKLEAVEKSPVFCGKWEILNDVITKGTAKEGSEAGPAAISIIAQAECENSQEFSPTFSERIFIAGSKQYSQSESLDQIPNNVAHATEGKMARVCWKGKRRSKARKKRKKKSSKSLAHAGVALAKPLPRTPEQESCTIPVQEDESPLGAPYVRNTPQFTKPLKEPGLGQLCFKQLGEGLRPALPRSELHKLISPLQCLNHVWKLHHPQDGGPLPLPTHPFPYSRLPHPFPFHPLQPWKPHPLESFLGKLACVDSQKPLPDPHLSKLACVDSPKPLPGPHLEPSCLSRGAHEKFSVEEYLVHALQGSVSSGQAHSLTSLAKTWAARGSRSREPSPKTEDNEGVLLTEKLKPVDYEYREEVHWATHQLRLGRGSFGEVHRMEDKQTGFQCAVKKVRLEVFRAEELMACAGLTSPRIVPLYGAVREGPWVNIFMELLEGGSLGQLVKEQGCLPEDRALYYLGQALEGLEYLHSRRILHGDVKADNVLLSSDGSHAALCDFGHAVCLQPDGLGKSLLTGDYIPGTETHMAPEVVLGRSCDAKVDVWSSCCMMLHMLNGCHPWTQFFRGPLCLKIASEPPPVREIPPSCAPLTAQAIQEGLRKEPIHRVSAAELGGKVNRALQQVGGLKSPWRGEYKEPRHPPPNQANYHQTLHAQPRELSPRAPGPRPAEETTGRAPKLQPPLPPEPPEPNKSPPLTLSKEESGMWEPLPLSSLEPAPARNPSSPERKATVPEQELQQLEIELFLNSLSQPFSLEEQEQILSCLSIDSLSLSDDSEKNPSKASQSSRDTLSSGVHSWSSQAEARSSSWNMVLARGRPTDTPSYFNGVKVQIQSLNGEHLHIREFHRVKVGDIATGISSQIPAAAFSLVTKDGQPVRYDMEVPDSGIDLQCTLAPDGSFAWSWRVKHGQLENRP
Assay: Inhibition of auto-phosphorylation of recombinant human NIK/MAP3K14 activity (AlphaScreen)
Type: biochemical
Settings: 25 microM ATP, averaged over all measurements on all batches
Protocol: Pharmacological Part Biological assay A Inhibition of auto-phosphorylation of recombinant human NF-kappaB-inducing Kinase (NIK/MAP3K14) Activity (AlphaScreen®) NIK/MAP3K14 auto-phosphorylation activity was measured using the AlphaScreen® (αscreen) format (Perkin Elmer). […] Protein A Acceptor and Glutathione-Donor beads were added before reading using an EnVision® Multilabel Plate Reader (Perkin Elmer). […]
A collection of compounds and their measured log10 IC50
Scale type: logarithmic (base 10). Underlying IC50 unit: nM.

- COCCOc1ncccc1Nc1nccc(-c2cc(C#N)c3c(c2)[C@](C)(CO)CN3)n1: 1.58
- Cc1cnc(CCN2CC(F)C2)c(Nc2nccc(-c3cc(C#N)c4c(c3)[C@@](C)(CO)CN4)n2)c1: 1.08
- C[C@]1(CO)CNc2c(C#N)cc(-c3ccnc(Nc4cc(Cl)cnc4OC4CCOCC4)n3)cc21: 1.01
- Cc1cc(Nc2nccc(-c3cc(C#N)c4c(c3)[C@@](C)(CO)CN4)n2)c(=O)n(CC2(C)COC2)c1 [Compound 29i]: 0.48
- COc1nc(C)ncc1Nc1nccc(-c2cc(C#N)c3c(c2)[C@@](C)(CO)CN3)n1: 0.26

Need log10 IC50 of CC1(C)CNc2c(C#N)cc(-c3ccnc(Nc4cc(F)cn(CCN5CC(F)C5)c4=O)n3)cc21 [Compound 28i] , thanks.
0.88

Thanks! And C[C@]1(CO)CNc2c(C#N)cc(-c3ccnc(Nc4cc(F)cn(CCN5CCOCC5)c4=O)n3)cc21 ?
0.11

* * *

Measured IC50 accompanies every entry in the list below.
System: JJN-3 (NIK translocated) multiple myeloma cells
Experiment: Antiproliferative activity on JJN-3 multiple myeloma cells (CellTiter-Glo)
Type: cell-based, human
Conditions: Homo sapiens, JJN-3, 96 h, JJN-3 (NIK translocated) cells, 96 hr treatment, averaged values, read-out: JJN-3 Proliferation inhibition (IC50 (nM))
Method: Determination of Antiproliferative Activity on JJN-3 (NIK Translocated) and KMS12-BM (NIK WT) Multiple Myeloma Cells All compounds tested were dissolved in DMSO and further dilutions were made in culture medium. […] Viability was assessed using CellTiter-Glo cell viability assay kit (Promega). […] Luminescence was measured on a HTS Topcount (Perkin Elmer). […] For each experiment, controls (containing no drug) and a blank incubation (containing cells read at the time of compound addition) were run in parallel. […]

- CC(C)Oc1ncc(Cl)cc1Nc1nccc(-c2cc(C#N)c3c(c2)[C@@](C)(CO)CN3)n1 [Compound 30]: 1260 nM
- Cc1cnc(OC2CN(C)CC2F)c(Nc2nccc(-c3cc(C#N)c4c(c3)[C@@](C)(CO)CN4)n2)c1 (stereo partly drawn) [Compound 153]: 240 nM
- C[C@]1(CO)CNc2c(C#N)cc(-c3ccnc(Nc4cccnc4OC[C@@H]4CCCO4)n3)cc21 [Compound 42]: 347 nM

Tell me the measured IC50 of CC1(C)CNc2c(C#N)cc(-c3ccnc(Nc4cnc(N5CCOCC5)nc4)n3)cc21 [Compound 125] , please.
166 nM

Item: CNCC1(C)CNc2c(C#N)cc(-c3ccnc(Nc4cccnc4OC)n3)cc21 (stereo not drawn) [Compound 108]
2140 nM

What do you have for Cc1ccnc(Nc2nccc(-c3cc(C#N)c4c(c3)C(C)(CO)CN4)n2)n1 (stereo not drawn) [Compound 126] ?
2510 nM

* * *

test system: JJN-3 (NIK translocated) multiple myeloma cells; assay: Antiproliferative activity on JJN-3 multiple myeloma cells (CellTiter-Glo); format: cell-based, human; conditions: Homo sapiens, JJN-3, 96 h, JJN-3 (NIK translocated) cells, 96 hr treatment, averaged values, read-out: JJN-3 Proliferation inhibition (IC50 (nM))
Measured IC50 values are reported for all entries that follow.
Report as a plain number; the unit nM is understood.

Recorded IC50 for COCCn1cc(Cl)cc(Nc2nccc(-c3cc(C#N)c4c(c3)[C@@](C)(CO)CN4)n2)c1=O [Compound 14i] , please?
24

Then what about the compound C[C@]1(CO)CNc2c(C#N)cc(-c3ccnc(Nc4cc(C#N)cnc4OC4CC4)n3)cc21 [Compound 85] ?
372

* * *

Target: recombinant human NF-kappaB-inducing Kinase (NIK/MAP3K14) (Homo sapiens, UniProt Q99558)
Assay: Inhibition of auto-phosphorylation of recombinant human NIK/MAP3K14 activity (AlphaScreen)
Assay type: biochemical
Details: 25 microM ATP, averaged over all measurements on all batches
Description: Pharmacological Part Biological assay A Inhibition of auto-phosphorylation of recombinant human NF-kappaB-inducing Kinase (NIK/MAP3K14) Activity (AlphaScreen®) NIK/MAP3K14 auto-phosphorylation activity was measured using the AlphaScreen® (αscreen) format (Perkin Elmer). […] Protein A Acceptor and Glutathione-Donor beads were added before reading using an EnVision® Multilabel Plate Reader (Perkin Elmer). […]
Property: IC50 (nM)
Write it as a number; the unit nM goes unstated.

Completed entries (count: 5):
- CC1(COc2ncc(C#N)cc2Nc2nccc(-c3cc(C#N)c4c(c3)[C@@](C)(CO)CN4)n2)COC1: 5.1
- Cc1cnc(OC2CN(C)CC2F)c(Nc2nccc(-c3cc(C#N)c4c(c3)[C@@](C)(CO)CN4)n2)c1 (some centres unmarked) [Compound 154]: 7.2
- COCCOc1ncc(C)cc1Nc1nccc(-c2cc(C#N)c3c(c2)[C@@](C)(CO)CN3)n1: 3.2
- COc1ncccc1Nc1nccc(-c2cc(C#N)c3c(c2)C(C)(CN2CCOCC2)CN3)n1 (centres unmarked): 34.7
- Cc1cc(Nc2nccc(-c3cc(C#N)c4c(c3)[C@@](C)(CO)CN4)n2)c(=O)n(Cc2nccn2C2CC2)c1: 1

Which IC50 is reported with recombinant human NF-kappaB-inducing Kinase (NIK/MAP3K14) (Homo sapiens, UniProt Q99558) for this entry: Cc1cc(Nc2nccc(-c3cc(C#N)c4c(c3)[C@@](C)(CO)CN4)n2)c(C)nc1OC1CCN(C2CC2)CC1 ?
4.8
